# targetDesc: Kv11.1 (hERG) (Homo sapiens (Human), UniProt Q12809)
# Sequence (Q12809 whole entry): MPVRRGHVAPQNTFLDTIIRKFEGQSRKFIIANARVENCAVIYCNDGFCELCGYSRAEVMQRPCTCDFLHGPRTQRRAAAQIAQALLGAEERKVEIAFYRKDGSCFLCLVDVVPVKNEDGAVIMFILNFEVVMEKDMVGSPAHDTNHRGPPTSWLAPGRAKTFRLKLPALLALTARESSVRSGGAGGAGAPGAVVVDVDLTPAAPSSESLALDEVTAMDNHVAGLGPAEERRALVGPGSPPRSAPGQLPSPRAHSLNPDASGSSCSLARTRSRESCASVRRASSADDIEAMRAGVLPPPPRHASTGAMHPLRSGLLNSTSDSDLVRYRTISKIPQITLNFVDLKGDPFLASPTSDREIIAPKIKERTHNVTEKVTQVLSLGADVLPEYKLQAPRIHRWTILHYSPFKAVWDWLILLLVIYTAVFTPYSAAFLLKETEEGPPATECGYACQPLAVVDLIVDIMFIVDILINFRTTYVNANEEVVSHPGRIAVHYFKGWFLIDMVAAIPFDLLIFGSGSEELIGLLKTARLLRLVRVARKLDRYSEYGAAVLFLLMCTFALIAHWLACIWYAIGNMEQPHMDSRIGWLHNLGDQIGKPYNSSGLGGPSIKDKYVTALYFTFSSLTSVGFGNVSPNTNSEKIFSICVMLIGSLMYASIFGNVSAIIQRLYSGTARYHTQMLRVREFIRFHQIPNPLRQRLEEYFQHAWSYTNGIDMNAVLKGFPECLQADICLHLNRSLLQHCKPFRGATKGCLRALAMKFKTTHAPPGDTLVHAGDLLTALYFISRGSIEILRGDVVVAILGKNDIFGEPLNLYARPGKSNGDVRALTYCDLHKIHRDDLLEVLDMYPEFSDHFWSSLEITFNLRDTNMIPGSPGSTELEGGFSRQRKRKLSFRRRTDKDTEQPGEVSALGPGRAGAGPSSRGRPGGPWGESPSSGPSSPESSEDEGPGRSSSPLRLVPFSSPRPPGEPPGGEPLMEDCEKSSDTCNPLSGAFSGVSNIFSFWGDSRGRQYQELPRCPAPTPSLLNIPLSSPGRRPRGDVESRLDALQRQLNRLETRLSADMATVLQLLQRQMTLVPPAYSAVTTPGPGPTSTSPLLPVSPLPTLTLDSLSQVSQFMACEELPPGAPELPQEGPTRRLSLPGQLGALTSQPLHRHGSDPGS
# assayText: Kv11.1 (hERG) ion channel activity (patch clamp assay), HEK293 cells transfected with hERG gene
# conditionSummary: Ki [Kv1.11 hERG], hERG patch clamp assay (cells without asterisk)
Here, each record is paired with measured Ki data.
readout: Ki

OC(c1ccc(F)c(-c2ncnc3cc(N4CCOCC4)ccc23)c1)c1ncccc1Cl (centres unmarked) [Example 465] | 15 to 25 µM
COc1ccc(C(C(N)=O)c2cc(-c3ncnc4cc(N5CCOCC5)ccc34)c(F)cc2Cl)nn1 (centres unmarked) [Example 325] | 15 to 25 µM
Cn1nc(C(C(N)=O)c2ccc(F)c(-c3ncnc4cc(N5CCOCC5)ccc34)c2)ccc1=O (centres unmarked) [Example 317] | 15 to 25 µM
OC(c1ccc(F)c(-c2ncnc3cc(N4CCOCC4)ccc23)c1)c1nnc2ccccn12 (centres unmarked) [Example 343] | 15 to 25 µM
OC(c1cc(-c2ncnc3cc(N4CCOCC4)ccc23)ccc1Cl)c1ncncc1F (centres unmarked) [Example 389] | 10 to 15 µM
Cc1cnc(C(O)c2cc(-c3ncnc4cc(N5CCOCC5)ccc34)c(F)cc2F)c(C)n1 (centres unmarked) [Example 355] | 15 to 25 µM
OC(c1cc(-c2ncnc3cc(N4CCOCC4)ccc23)c(F)cc1F)c1ncnc2ccsc12 (centres unmarked) [Example 439] | 10 to 15 µM
Cc1ncc(C(O)c2ccc(F)c(-c3ncnc4cc(N5CCOCC5)ccc34)c2)nc1C (centres unmarked) [Example 314] | 15 to 25 µM

====

Listed next: entries and their corresponding pIC50.
# targetDesc: DNA-PK (Homo sapiens (Human))
# assayText: DNA-PK assay (biochemical), flashplate 33P-ATP kinase assay
# conditionSummary: enzymatic; 5 μM ATP
pIC50: −log10 of the molar value.
readout: pIC50

OCCOc1nccnc1C(O)c1ccc(F)c(-c2ncnc3cc(N4CCOCC4)ccc23)c1 (centres unmarked) | 7.52 to 8.15
C#Cc1nc(-c2cc(C(O)c3nccs3)ccc2F)c2ccc(N3CCOCC3)cc2n1 (centres unmarked) [Example 215] | > 8.52
O=c1ccc(C(O)c2cc(-c3ncnc4cc(N5CCOCC5)ccc34)c(F)cc2Cl)nn1C1CC1 (centres unmarked) | 7.52 to 8.15
COc1ccnnc1C(O)c1ccc(F)c(-c2ncnc3cc(N4CCOCC4)ccc23)c1 (centres unmarked) | > 8.52
OC(c1ccc(F)c(-c2ncnc3cc(N4CCOCC4)ccc23)c1)c1nccnc1N1CCCC1 (centres unmarked) | 8.15 to 8.52
O=c1ccc(C(O)c2cc(-c3ncnc4cc(N5CCOCC5)ccc34)c(F)cc2Cl)n[nH]1 (centres unmarked) | > 8.52
C#CC(O)(c1ccc(OC)nn1)c1cc(-c2ncnc3cc(N4CCOCC4)ccc23)c(F)cc1Cl (centres unmarked) | 7.52 to 8.15
OC(c1ccc2nccn2n1)c1cc(-c2ncnc3cc(N4CCOCC4)ccc23)c(F)cc1Cl (centres unmarked) [Example 63] | > 8.52

====

# targetDesc: DNA-PK (Homo sapiens (Human), UniProt P78527)
# assayText: DNA-PK assay (biochemical), flashplate 33P-ATP kinase assay
# conditionSummary: biochemical DNA-PK assay
pIC50: −log10 of the molar value.
pIC50 for assorted molecules
readout: pIC50

OC(c1cc(-c2ncnc3cc(N4CCOCC4)ccc23)ccc1Cl)c1nccn2ccnc12 (stereo not shown) [Example 369] | 7.52 to 8.15
COc1cncnc1C(O)c1cc(-c2ncnc3cc(N4CCOCC4)ccc23)c(F)cc1F (stereo not shown) [Example 448] | > 8.52
NC(=O)C(c1ccc(F)c(-c2ncnc3cc(N4CCOCC4)ccc23)c1)c1nncc2sccc12 (stereo not shown) [Example 285] | 8.15 to 8.52
COc1nccnc1C(C(N)=O)c1cc(-c2ncnc3cc(N4CCOCC4)cc(F)c23)c(F)cc1Cl (stereo not shown) [Example 261] | 7.52 to 8.15
COc1ccc(C(O)c2cc(-c3ncnc4cc(N5CCOCC5)cc(F)c34)c(F)cc2Cl)nn1 (single isomer, unassigned) [Example 263] | 7.52 to 8.15
COc1ccc(C(O)c2cc(-c3ncnc4cc(N5CCOCC5)cnc34)c(F)cc2Cl)nn1 (stereo not shown) [Example 227] | 8.15 to 8.52
COc1cncnc1C(O)c1cc(-c2ncnc3cc(N4CCOCC4)ccc23)ccc1Cl (stereo not shown) [Example 413] | 8.15 to 8.52
COc1nnccc1C(C(N)=O)c1cc(-c2ncnc3cc(N4CCOCC4)ccc23)c(F)cc1Cl (stereo not shown) [Example 307] | 8.15 to 8.52
NC(=O)C(c1cncc(Cl)c1)c1ccc(F)c(-c2ncnc3cc(N4CCOCC4)ccc23)c1 (stereo not shown) [Example 297] | 7.52 to 8.15
OC(c1cc(-c2ncnc3cc(N4CCOCC4)ccc23)ccc1Cl)c1ncnc2sccc12 (stereo not shown) [Example 430] | 8.15 to 8.52
OC(c1ccc(F)c(-c2ncnc3cc(N4CCOCC4)ccc23)c1)c1ncccc1OC(F)(F)F (stereo not shown) [Example 475] | > 8.52
NC(=O)C(c1cc(-c2ncnc3cc(N4CCOCC4)ccc23)ccc1Cl)c1nccnc1Cl (stereo not shown) [Example 315] | < 7.52
Cc1nccnc1C(C(N)=O)c1ccc(F)c(-c2ncnc3cc(N4CCOCC4)sc23)c1 (stereo not shown) [Example 270] | 8.15 to 8.52
[2H]c1c(N2CCOCC2)cc2ncnc(-c3cc(C(O)c4nccnc4C)ccc3F)c2c1[2H] (stereo not shown) [Example 226] | 8.15 to 8.52
COc1ccc(C(C(N)=O)c2ccc(F)c(-c3ncnc4cc(N5CCOCC5)ccc34)c2)nn1 (stereo not shown) [Example 308] | 7.52 to 8.15
COc1ccc(C(O)c2ccc(F)c(-c3ncnc4cc(N5CCOCC5)c(F)cc34)c2)nn1 (stereo not shown) [Example 282] | < 7.52

====

Each item that follows carries a reported pIC50.
# targetDesc: DNA-PK phosphorylation at serine 2056 (Homo sapiens (Human))
# assayText: DNA-PK phosphorylation at serine 2056 (cellular), bleomycin-treated HCT116 cells, ELISA
# Type: cell-based
# conditionSummary: cellular DNA-PK phosphorylation at serine 2056, HCT116; read-out: IC50 pDNA-PK
pIC50: −log10 of the molar value.
readout: pIC50

Cn1c(C(O)c2cc(-c3ncnc4cc(N5CCOCC5)ccc34)ccc2F)cccc1=O (centres unmarked) [Example 401] | 5.30 to 6.30
OC(c1cc(-c2ncnc3cc(N4CCOCC4)ccc23)c(F)cc1F)c1ncnc2c1CCNC2 (centres unmarked) | 5.30 to 6.30
Cn1cnc2c(C(O)c3cc(-c4ncnc5cc(N6CCOCC6)ccc45)c(F)cc3F)ncnc21 (centres unmarked) [Example 347] | 5.30 to 6.30
NC(=O)C(c1cc(-c2ncnc3cc(N4CCOCC4)ccc23)c(F)cc1Cl)c1ncccc1Cl (centres unmarked) | 5.30 to 6.30
Cc1cc(C(O)c2ccc(F)c(-c3ncnc4cc(N5CCOCC5)ccc34)c2)n(C)c(=O)c1 (centres unmarked) | 5.30 to 6.30
Cc1cnc(C(C(N)=O)c2ccc(F)c(-c3ncnc4cc(N5CCOCC5)ccc34)c2)c(C)n1 (centres unmarked) | 4.52 to 5.00
OC(c1ccc(F)c(-c2ncnc3cc(N4CCOCC4)ccc23)c1)c1nccnc1I (centres unmarked) | > 6.30
[2H]c1c(N2CCOCC2)cc2ncnc(-c3cc(C(O)c4nccnc4C)ccc3F)c2c1[2H] (centres unmarked) | > 6.30

====

# targetDesc: DNA-PK (Homo sapiens (Human))
# assayText: DNA-PK assay (biochemical), flashplate 33P-ATP kinase assay
# conditionSummary: enzymatic; 5 μM ATP
# Protocol: A) DNA-PK Assay (Biochemical) The kinase assay was carried out in streptavidin-coated […] microtitre flashplates. […] The reaction was stopped using 50 μl/well of 200 mM EDTA. After incubation for a further 30 min at room temperature, the liquid was removed. […] A nonspecific reaction (blank value) was determined using 10 μM of an innate kinase inhibitor. The radioactivity measurement was carried out using a TopCount. IC50 values were calculated in RS1.
pIC50: −log10 of the molar value.
readout: pIC50

OC(c1cccnn1)c1cc(-c2ncnc3cc(N4CCOCC4)ccc23)c(F)cc1Cl (single isomer, unassigned) [Example 30] | > 8.52
CCn1nc(C(O)c2cc(-c3ncnc4cc(N5CCOCC5)ccc34)c(F)cc2Cl)ccc1=O (stereo not shown) [Example 96] | 7.52 to 8.15
CCn1nc(C(O)c2cc(-c3ncnc4cc(N5CCOCC5)ccc34)c(F)cc2Cl)ccc1=O (stereo not shown) [Example 93] | 8.15 to 8.52
Cn1c(C(O)c2ccc(F)c(-c3ncnc4cc(N5CCOCC5)ccc34)c2)cccc1=O (stereo not shown) | > 8.52
Cc1nccnc1C(O)c1cc(-c2ncnc3cc(N4CCOCC4)ccc23)c(F)cc1F (stereo not shown) [Example 86] | > 8.52
COc1cc(C(O)c2ccc(F)c(-c3ncnc4cc(N5CCOCC5)ccc34)c2)c(Cl)nn1 (stereo not shown) | 8.15 to 8.52
O=C(O)COc1ccc(C(O)c2cc(-c3ncnc4cc(N5CCOCC5)ccc34)c(F)cc2Cl)nn1 (stereo not shown) | 8.15 to 8.52
OC(c1cc(-c2ncnc3cc(N4CCOCC4)ccc23)c(F)cc1F)c1ncnc2sccc12 (stereo not shown) | > 8.52
COc1ccnnc1C(O)c1cc(-c2ncnc3cc(N4CCOCC4)ccc23)c(F)cc1Cl (stereo not shown) | 8.15 to 8.52
COc1ccc(C(O)c2cc(-c3ncnc4cc(N5CCOCC5)sc34)c(F)cc2Cl)nn1 (single isomer, unassigned) [Example 126] | > 8.52

Data origin: patent US9732094B2
